Data credit: ChEMBL document CHEMBL1121619

- system.name: 5-hydroxytryptamine receptor 2B (Rattus norvegicus, UniProt P30994)
- Sequence (P30994 whole entry): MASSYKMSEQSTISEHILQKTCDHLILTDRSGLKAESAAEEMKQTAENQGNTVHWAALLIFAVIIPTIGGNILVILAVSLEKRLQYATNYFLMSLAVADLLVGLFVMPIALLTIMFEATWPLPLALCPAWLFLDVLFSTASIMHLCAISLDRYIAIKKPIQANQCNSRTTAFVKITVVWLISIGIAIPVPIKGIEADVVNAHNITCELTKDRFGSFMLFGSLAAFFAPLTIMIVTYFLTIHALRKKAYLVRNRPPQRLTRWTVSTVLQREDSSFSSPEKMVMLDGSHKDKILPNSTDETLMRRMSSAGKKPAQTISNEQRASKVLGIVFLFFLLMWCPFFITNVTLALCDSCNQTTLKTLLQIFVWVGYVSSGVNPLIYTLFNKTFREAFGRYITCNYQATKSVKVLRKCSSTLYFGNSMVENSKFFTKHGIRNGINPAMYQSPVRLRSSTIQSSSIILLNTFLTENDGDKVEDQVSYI
- experiment.summary: Antagonistic activity against 5-hydroxytryptamine 2B receptor obtained from rat stomach fundus preparation
- Format: functional, tissue-based
- recorded.conditions: read-out: pA2 (converted)
readout: Kb (nM)
Express the result in nM but write the number alone.

# example entries with known answers
>>> measured_number("COc1ccc(OCc2ccccc2)c(CCN(C)C)c1")
3630
>>> measured_number("COc1ccc(O)c(CCN)c1")
79.4
>>> measured_number("COc1cc(CC(C)N)c(O)cc1C (centres undefined)")
36.3
>>> measured_number("COc1ccc(O)c(CC(C)N)c1 (centres undefined)")
100
>>> measured_number("COc1ccc(O)c(CCN(C)C)c1")
145
>>> measured_number("COc1ccc(O)c(CC(C)N(C)C)c1 (centres undefined)")
166

Item COc1cc(C)c(O)cc1CC(C)N (centres undefined) has what recorded Kb?
12.3

COc1cc(CC(C)N)ccc1O (centres undefined) , same question.
6460

COc1ccc(CC(C)N)cc1O (centres undefined) , same question.
135
